The measured values listed here are drawn from patent US7776863B2.

Tested on: HIV-1 LAI
assay-method-text: microbe, parasite or virus in culture
settings: Compound 1 + named drug, EC50 ratio 2.5:1 (Compound 1:comparator); 95% confidence interval in parentheses
value-type: Combination Indices at % HIV Inhibition (Confidence Interval) 90%

[[record]]
compound_string = "Cc1cn([C@H]2C=C[C@@H](CO)O2)c(=O)[nH]c1=O"
reported_result = "0.92 (0.36, 1.48)"

[[record]]
compound_string = "Nc1nc(=O)n([C@@H]2CS[C@H](CO)O2)cc1F"
reported_result = "0.67 (0.44, 0.89)"

[[record]]
compound_string = "Nc1ccn([C@@H]2CS[C@H](CO)O2)c(=O)n1"
reported_result = "0.49 (0.22, 0.75)"

[[record]]
compound_string = "CC(C)c1nc(CN(C)C(=O)N[C@H](C(=O)N[C@@H](Cc2ccccc2)C[C@H](O)[C@H](Cc2ccccc2)NC(=O)OCc2cncs2)C(C)C)cs1"
reported_result = "0.19 (0.14, 0.24)"

[[record]]
compound_string = "Cc1c(O)cccc1C(=O)N[C@@H](CSc1ccccc1)[C@H](O)CN1C[C@H]2CCCC[C@H]2C[C@H]1C(=O)NC(C)(C)C"
reported_result = "0.87 (0.38, 1.35)"

[[record]]
compound_string = "COC(=O)N[C@H](C(=O)N[C@@H](Cc1ccccc1)[C@@H](O)CN(Cc1ccc(-c2ccccn2)cc1)NC(=O)[C@@H](NC(=O)OC)C(C)(C)C)C(C)(C)C"
reported_result = "0.97 (0.46, 1.48)"


====

Combination Indices at % HIV Inhibition (Confidence Interval) 50%: recorded values
Tested on: HIV-1 LAI
assay-method-text: microbe, parasite or virus in culture
settings: Compound 1 + named drug, EC50 ratio 1:1 (Compound 1:comparator); 95% confidence interval in parentheses
value-type: Combination Indices at % HIV Inhibition (Confidence Interval) 50%

[[record]]
compound = "COC(=O)N[C@H](C(=O)N[C@@H](Cc1ccccc1)[C@@H](O)CN(Cc1ccc(-c2ccccn2)cc1)NC(=O)[C@@H](NC(=O)OC)C(C)(C)C)C(C)(C)C [Atazanavir, atazanavir]"
system_name = "HIV-1 LAI"
reported_result = "0.53 (0.46, 0.60)"

[[record]]
compound = "CC(C)(C)NC(=O)[C@@H]1CN(Cc2cccnc2)CCN1C[C@@H](O)C[C@@H](Cc1ccccc1)C(=O)N[C@H]1c2ccccc2C[C@H]1O [Indinavir, indinavir]"
system_name = "HIV-1 LAI"
reported_result = "0.41 (0.26, 0.56)"

[[record]]
compound = "Nc1ccn([C@H]2CC[C@@H](CO)O2)c(=O)n1 [Zalcitabine, zalcitabine]"
system_name = "HIV-1 LAI"
reported_result = "0.58 (0.46, 0.69)"

[[record]]
compound = "c1cc(CN2CCCNCCNCCCNCC2)ccc1CN1CCCNCCNCCCNCC1 [AMD-3100]"
system_name = "HIV-1 LAI"
reported_result = "0.44 (0.29, 0.60)"

[[record]]
compound = "CC(C)CN(C[C@@H](O)[C@H](Cc1ccccc1)NC(=O)O[C@H]1CCOC1)S(=O)(=O)c1ccc(N)cc1 [Amprenavir, amprenavir]"
system_name = "HIV-1 LAI"
reported_result = "0.14 (0.11, 0.17)"

[[record]]
compound = "Cc1ccnc2c1NC(=O)c1cccnc1N2C1CC1 [Nevirapine, nevirapine]"
system_name = "HIV-1 LAI"
reported_result = "0.19 (0.15, 0.23)"

[[record]]
compound = "Cc1cn([C@H]2C[C@H](N=[N+]=[N-])[C@@H](CO)O2)c(=O)[nH]c1=O [Zidovudine, zidovudine]"
system_name = "HIV-1 LAI"
reported_result = "0.25 (0.17, 0.34)"

[[record]]
compound = "O=C1Nc2ccc(Cl)cc2[C@@](C#CC2CC2)(C(F)(F)F)O1 [Efavirenz, efavirenz]"
system_name = "HIV-1 LAI"
reported_result = "0.70 (0.50, 0.89)"

[[record]]
compound = "Nc1ccn([C@@H]2CS[C@H](CO)O2)c(=O)n1 [Lamivudine, lamivudine]"
system_name = "HIV-1 LAI"
reported_result = "0.75 (0.45, 1.05)"

